Target: T1, Sla1-3, P32790
T1 sequence (P32790 344-424, looked up): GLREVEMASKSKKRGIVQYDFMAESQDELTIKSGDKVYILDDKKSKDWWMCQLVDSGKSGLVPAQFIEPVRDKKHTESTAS
Experiment: SPOT array
Conditions: median of control spots 5475
assay_endpoint: SPOT intensity
I'd appreciate a reply containing only the number, no unit.

Problem: For the binder shown here, ILARAILTIPRVLDK , give the reported SPOT intensity.
Solution: 4

Problem: Another binder to check: TKHKAPPPPPPTAET
Solution: 0

Problem: How about DKSRPPRPPPKPLHL ?
Solution: 0

Problem: And the next one, TPRLSLPRLPNKHHW ?
Solution: 0

Problem: Same for PPLPRAPPVPPATFE
Solution: 1

Problem: Same for KTRLRPAFIQQLWSS
Solution: 33

Problem: Proceed to GERSRPLVISILSSA
Solution: 0

Problem: Consider next the binder TSIEIPKRSPLRFTS in the same way.
Solution: 0

Data credit: paper PMC2756588
